Molecular target: Cdk2(S181C) (C177A) (Homo sapiens, UniProt P24941, C177A/S181C)
Construct: poly-histidine; made in house; host or cells: E. coli
Assay: Kinetic thiol consumption assay with Cdk2 mutant S181C
Assay type: binding
Settings: Protein: Cdk2; cysteine position S181C; additional mutation C177A; in h^-1
Assignment: determine reported Rate constant with Cdk2 S181C for the given compounds.
Answers are plain numbers.

Guide cases for Rate constant with Cdk2 S181C, answers given:
>>> data_value("C=CC(=O)N1CCC2(CCCN(Cc3ccccc3)C2)C1 (stereo not shown)")
0.003487
>>> data_value("C=CC(=O)N1CCN(Cc2noc(C3CC3)n2)CC1")
0.008821
>>> data_value("C=CC(=O)N1CCc2cc(-c3cccc(F)c3)ccc21")
0.004663
>>> data_value("C=CC(=O)N(c1cccc2ncccc12)C1CCC1")
0.01707
>>> data_value("CN(C#N)Cc1ccccc1")
0.004061

Report Rate constant with Cdk2 S181C for every entry below.
1. C=CC(=O)N1CCC2(CC1)NC(=O)C1(CCCCC1)N2
2. C=CC(=O)N1CCCC(C(=O)OCC)C1 (stereo not shown)
3. C=CC(=O)Nc1cccc(C(=O)c2ccccc2)c1
4. C=CC(=O)N1C(C(=O)c2ccccc2)C1c1ccccc1 (stereo not shown)
5. C=CC(=O)NC(C)c1cc(OC)c(OC)c(OC)c1 (stereo not shown)
6. C=CC(=O)N1CCCCCC1c1cccnc1 (stereo not shown)
7. C=CC(=O)N1CCN(C(=O)OC(C)(C)C)CC1
8. C=CC(=O)Nc1ccc2nc(C)[nH]c2c1

0.002434
0.003834
0.01432
0.06402
0.002941
0.006168
0.006959
0.01361

Provide reported Rate constant with Cdk2 S181C for each item, in the same order as listed.
1. C=CC(=O)N(c1ccc2c(c1)OCCO2)C1CC1
2. C=CC(=O)NCC1CCCN1S(=O)(=O)c1ccc(C)cc1 (stereo not shown)
3. C=CC(=O)NCc1ccc(-c2ccccc2)cc1
4. C=CC(=O)Nc1nc2ccccc2n1CCc1ccccn1
5. C=CC(=O)NC1CCN(Cc2ccccc2)CC1
6. C=CC(=O)N1CCCC2(CCCc3ccccc32)C1 (stereo not shown)
7. C=CC(=O)N1CCn2cccc2C1c1ccccc1 (stereo not shown)
8. C=CC(=O)NCC1CCCN1S(=O)(=O)c1ccc(C(=O)O)cc1 (stereo not shown)

1. 0.00794
2. 0.02877
3. 0.001472
4. 0.0188
5. 0.0006548
6. 0.007158
7. 0.00897
8. 0.005838

Your task in this section: give Rate constant with Cdk2 S181C for each listed record.
1. C=CC(=O)Nc1cccc(-c2cc3ccccc3[nH]2)c1
2. CC1CN(C(=O)CCl)CC(C)O1 (stereo not shown)
3. C=CC(=O)NCCc1c(-c2ccccn2)[nH]c2ccc(F)cc12
4. C=CC(=O)N1CC2CN(Cc3ccccc3)CC2C1 (stereo not shown)

0.00499
0.01809
0.0003879
0.003519

###

Biological target: Cdk2(S276C) (C177A) (Homo sapiens, UniProt P24941, C177A/S276C)
Construct: poly-histidine; made in house; host or cells: E. coli
Test: Kinetic thiol consumption assay with Cdk2 mutant S276C
Type: binding
Set-up: key: rate constant with Cdk2 ÷ rate constant with model thiol (fold)
Conditions: Cdk2 S276C, additional mutation C177A
I'd be grateful if you could share measured Rate enhancement, Cdk2 S276C for these entries.
One number for each entry.

# annotated cases, reported Rate enhancement, Cdk2 S276C shown
>>> data_value("C=CC(=O)Nc1ccccc1-c1ccccc1")
0.2841
>>> data_value("C=CC(=O)N1CCCC(N2C(=O)CC3(CCCC3)C2=O)C1 (stereo not drawn)")
0.0707
>>> data_value("C=CC(=O)NCCNC(=O)C1CCCN1S(=O)(=O)c1ccccc1 (stereo not drawn)")
0.1717

Please look at the items below and tell me Rate enhancement, Cdk2 S276C for each one, in order.
1. C=CC(=O)N1CCCCCC1c1cccs1 (stereo not drawn)
2. C=CC(=O)N(Cc1ccco1)Cc1cc2cc(C)ccc2o1
3. C=CC(=O)N(C)C1CC(OCC)C12CCC2 (stereo not drawn)
4. C=CC(=O)Nc1sc2c(c1C(=O)NC1CC1)CCC2
5. C=CC(=O)N1CCC2(CC1)NC(=O)C1(CCCCC1)N2
6. C=CC(=O)N1CCCCCC1C/C=C/c1ccccc1 (stereo not drawn)

0.5613
2.953
0.779
0.6924
1.682
1.276

###

Kindly supply the reported Rate enhancement, Cdk2 S276C values for the records listed here.
Target: Cdk2(S276C) (C177A) (Homo sapiens, UniProt P24941, C177A/S276C)
Construct: poly-histidine; made in house; host or cells: E. coli
Assay: Kinetic thiol consumption assay with Cdk2 mutant S276C
Format: binding
Design: key: rate constant with Cdk2 ÷ rate constant with model thiol (fold)
Conditions: Cdk2 S276C, additional mutation C177A

Previously resolved entries follow.
>>> data_value("C=CC(=O)N1CCn2c(Cc3ccccc3)nnc2C1")
6.528
>>> data_value("C=CC(=O)Nc1ccc2nc(C)[nH]c2c1")
0.9188
>>> data_value("C=CC(=O)N(c1cccc2ncccc12)C1CCC1")
1.851
>>> data_value("C=CC(=O)NC1c2ccccc2Oc2ccccc21")
0.5204
>>> data_value("C=CC(=O)N1C(=O)CC(c2ccccc2)N(C(=O)C=C)c2ccccc21 (stereo not shown)")
0

Please go through the list and note Rate enhancement, Cdk2 S276C for each compound.
1. C=CC(=O)NCCN1CCOCC1
2. C=CC(=O)N1CCN(c2ccccc2C(N)=O)CC1
3. C=CC(=O)N1CC2CCCCCCC21 (stereo not shown)
4. C=CC(=O)N1CC2(CCC2)c2c(F)cccc21
5. C=CC(=O)Nc1nc2ccccc2n1CCc1ccccn1
6. C=CC(=O)N(C)C1C2CCOC2C1(C)C (stereo not shown)
7. C=CC(=O)Nc1cccc(-c2nnnn2C2CC2)c1
8. O=C(CCl)NCCc1c[nH]c2ccccc12

1. 0.2004
2. 1.346
3. 3.196
4. 0.03818
5. 1.262
6. 0.6169
7. 1.606
8. 13.55

###

Molecular target: Cdk2(T182C) (C177A) (Homo sapiens, UniProt P24941, C177A/T182C)
Construct: poly-histidine; made in house; host or cells: E. coli
Assay: Kinetic thiol consumption assay with Cdk2 mutant T182C
Assay type: binding
Settings: Protein: Cdk2; cysteine position T182C; additional mutation C177A; in h^-1
Endpoint Label: Rate constant with Cdk2 T182C
Numbers only.

Parameter requested: Rate constant with Cdk2 T182C. Apply to each item below.
1. C=CC(=O)N1CCN(C(=O)OCC)CC1c1cccs1 (centres unmarked)
2. C=CC(=O)N1CCCCCC1c1ccc(N(C)C)cc1 (centres unmarked)
3. C=CC(=O)Nc1sc2c(c1C(=O)NC1CC1)CCC2
4. C=CC(=O)N1CCn2cccc2C1c1ccccc1 (centres unmarked)
5. C=CC(=O)Nc1ccc(C(=O)OC)cc1

[0.03623, 0.01087, 0.6945, 0.2035, 0.3207]

# map each molecule to its Rate constant with Cdk2 T182C
1. C=CC(=O)N1CCCC2(CCCc3ccccc32)C1 (centres unmarked)
2. C=CC(=O)NC1C2CC3CC(C2)CC1C3 (centres unmarked)
3. C=CC(=O)Nc1cccc(-c2nnnn2C2CC2)c1
4. C=CC(=O)N(CCCN1CCOCC1)Cc1ccncc1
5. C=CC(=O)NC1(c2noc(C3CC3)n2)CCCC1
6. C=CC(=O)N1CCN(c2ccccc2C(N)=O)CC1
7. C=CC(=O)Nc1ccccc1N1CCOCC1
8. C=CC(=O)NC1CC2CC1C1CCCC21 (centres unmarked)

0.06469
0.0006241
0.4908
0.006134
0.002365
0.02393
0.009966
0.00663

List reported Rate constant with Cdk2 T182C for each of these molecules:
1. C=CC(=O)NC1(C(N)=O)CCCCC1
2. C=CC(=O)N1CCN(c2cccc3cccnc23)CC1
3. C=CC(=O)N1CCN(S(C)(=O)=O)CC1c1ccccc1 (centres unmarked)
4. C=CC(=O)N(Cc1ccco1)Cc1cc2cc(C)ccc2o1
5. C=CC(=O)NCC1CN(C2CC2)CCO1 (centres unmarked)
6. C=CC(=O)NC1CCN(Cc2ccccc2)CC1

0.001391
0.07206
0.05729
0.4599
0.01973
0.0009576

Hey, quick one: what's Rate constant with Cdk2 T182C for each of these?
1. C=CC(=O)N1CCCC1CC1CC2CCC1C2 (centres unmarked)
2. C=CC(=O)Nc1[nH]nc(C2CC2)c1-c1ccc2c(c1)OCO2
3. C=CC(=O)N1CC(OCc2cccc3ccccc23)C1
4. C=CC(=O)N(Cc1ccc2c(c1)CCO2)C1CCCC1
5. C=CC(=O)N1CCOC2(CCCCC2)C1
6. C=CC(=O)N1CCN(Cc2noc(C3CC3)n2)CC1
7. C=CC(=O)N1CCn2c(Cc3ccccc3)nnc2C1
8. C=CC(=O)Nc1ccc(C23CC4CC(CC(O)(C4)C2)C3)cc1

1. 0.05469
2. 0.471
3. 0.1913
4. 0.3446
5. 0.108
6. 0.01551
7. 0.5417
8. 0.04819

Dear reader, for each entry below, please note its Rate constant with Cdk2 T182C.
1. N#Cc1ccncn1
2. C=CC(=O)N1CCC2(CC1)NC(=O)C1(CCCCC1)N2
3. C=CC(=O)NCCc1c(-c2ccccn2)[nH]c2ccc(F)cc12

1. 0.001386
2. 0.009647
3. 0.007812

For every record below, what is its Rate constant with Cdk2 T182C?
1. C=CC(=O)N1CCN(C(=O)OC(C)(C)C)c2ccccc21
2. O=C(CCl)NCCc1c[nH]c2ccccc12
3. C=CC(=O)N1CCn2c(C(=O)NC3CC3)ccc2C1C (centres unmarked)
4. O=C(CCl)N1CCCCCC1
5. C=CC(=O)N1CC2CCN(Cc3ccccc3)C2C1 (centres unmarked)
6. C=CC(=O)NCc1ccccc1

[0.1572, 0.02869, 0.05436, 0.06061, 0.01138, 0.1507]

For the 3 molecules below, give their Rate constant with Cdk2 T182C values.
1. C=CC(=O)NC1c2ccccc2Oc2ccccc21
2. C=CS(=O)(=O)c1ccccc1
3. C=CC(=O)Nc1ccccc1C#N

1: 0.09852; 2: 8.524; 3: 0.2419

// input: 2 molecules below; output: Rate constant with Cdk2 T182C for each
1. FC(F)(F)c1cc(Cl)ncc1Br
2. C=CC(=O)N1CC(Cc2ccccc2)C1

1: 0.005911; 2: 0.1492
